# System: Diabrotica balteata (corn root worm)
# RUN DESCRIPTION: Insecticidal action against Diabrotica balteata (corn root worm), sprayed maize sprouts
# Assay type: in vivo
# APPLIED CONDITIONS: 96 h, application rate of 200 ppm, L2 larvae, 4 days after infestation
Reported mortality at 200 ppm is given for each of the following molecules.

Please review the following examples before continuing.
In [3]: df
Out[3]:
                                   molecule            value_type  result_value
0  CCS(=O)(=O)c1cc(C2CC2)cnc1-c1nnc(-c2cc(C(F)(F)F)ccn2)s1  mortality at 200 ppm         ≥ 80%
1  CCS(=O)(=O)c1cc(C(F)(F)F)ccc1-c1nnc(-c2ccc(C(F)(F)F)nc2)s1 [Compound P1]  mortality at 200 ppm         ≥ 80%

Task: Look up mortality at 200 ppm: CCS(=O)(=O)c1ccc(C2CC2)nc1-c1nnc(-c2cncc(C(F)(F)F)c2)s1
Result: ≥ 80%
